TARGET_ENTITY: Human recombinant DHX9 protein (Homo sapiens (Human), UniProt Q08211)
Sequence (Q08211 whole entry): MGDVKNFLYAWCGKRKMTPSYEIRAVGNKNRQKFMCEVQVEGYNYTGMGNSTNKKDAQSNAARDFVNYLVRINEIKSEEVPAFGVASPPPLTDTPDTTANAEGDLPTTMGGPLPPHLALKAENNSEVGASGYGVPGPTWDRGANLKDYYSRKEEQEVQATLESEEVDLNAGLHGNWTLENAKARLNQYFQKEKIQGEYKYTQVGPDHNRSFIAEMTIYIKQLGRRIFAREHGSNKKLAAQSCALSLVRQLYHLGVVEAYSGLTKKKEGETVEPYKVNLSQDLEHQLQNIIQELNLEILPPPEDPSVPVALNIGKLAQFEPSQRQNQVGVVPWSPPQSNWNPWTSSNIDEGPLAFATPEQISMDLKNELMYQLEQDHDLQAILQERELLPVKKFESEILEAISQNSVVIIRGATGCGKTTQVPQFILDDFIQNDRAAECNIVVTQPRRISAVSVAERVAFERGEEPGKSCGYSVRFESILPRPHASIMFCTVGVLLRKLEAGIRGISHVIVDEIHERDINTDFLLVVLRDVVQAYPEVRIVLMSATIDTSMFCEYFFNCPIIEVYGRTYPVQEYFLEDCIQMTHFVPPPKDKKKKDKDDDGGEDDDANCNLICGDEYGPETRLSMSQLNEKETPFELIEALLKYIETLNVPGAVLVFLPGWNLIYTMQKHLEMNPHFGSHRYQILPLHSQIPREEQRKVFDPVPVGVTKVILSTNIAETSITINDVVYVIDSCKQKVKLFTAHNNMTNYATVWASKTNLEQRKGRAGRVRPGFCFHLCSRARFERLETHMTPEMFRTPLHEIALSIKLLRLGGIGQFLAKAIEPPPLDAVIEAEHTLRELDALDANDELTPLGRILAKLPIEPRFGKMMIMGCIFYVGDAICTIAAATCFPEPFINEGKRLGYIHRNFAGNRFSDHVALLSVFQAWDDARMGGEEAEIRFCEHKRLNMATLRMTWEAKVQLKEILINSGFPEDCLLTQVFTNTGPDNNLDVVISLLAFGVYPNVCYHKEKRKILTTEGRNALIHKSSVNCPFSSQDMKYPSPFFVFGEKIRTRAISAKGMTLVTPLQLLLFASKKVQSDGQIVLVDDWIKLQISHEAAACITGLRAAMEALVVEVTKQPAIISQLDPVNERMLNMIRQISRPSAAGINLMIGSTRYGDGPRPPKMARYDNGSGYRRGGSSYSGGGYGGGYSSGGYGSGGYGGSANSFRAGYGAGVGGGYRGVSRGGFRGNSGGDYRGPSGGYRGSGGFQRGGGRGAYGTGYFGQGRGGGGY
PROTOCOL_NOTES: DHX9 ATPase assay (ADP-Glo)
STUDY_CONDITIONS: read-out: DHX9 Biochemical Inflection Point
READOUT_NAME: IC50 (µM)
Give bare numbers, in µM.

Study these solved cases before continuing.
>  <CHEM_SMILES>
Cn1cc(C(=O)Nc2cc(Cl)cc(NS(C)(=O)=O)c2)cc1-c1ncc(F)cc1OCc1cnco1

>  <IC50 (µM)>
0.0094

$$$$
>  <CHEM_SMILES>
CS(=O)(=O)Nc1cc(Cl)cc(NC(=O)c2cc(-c3ncc(C(F)(F)F)cc3F)cs2)c1

>  <IC50 (µM)>
0.14

$$$$
>  <CHEM_SMILES>
CCS(=O)(=O)Nc1cc(Cl)cc(NC(=O)c2cc(-c3ncc(N4CC(F)(F)C4)cc3F)n(C)c2)c1

>  <IC50 (µM)>
0.0237

$$$$

Field: IC50. Fill in for each record below.
1. CS(=O)(=O)Nc1cc(Cl)cc(NC(=O)c2cnn(-c3ccc(N4CC5(COC5)C4)cc3OCc3cccc(F)c3)c2)c1
2. CS(=O)(=O)Nc1cc(Cl)cc(NC(=O)c2cc3c(C(F)(F)F)cccc3s2)c1
3. CS(=O)(=O)Nc1cc(Cl)cc(NC(=O)c2cnn(-c3ncccc3C#N)c2)c1
4. CS(=O)(=O)Nc1cc(Cl)cc(NC(=O)c2cc(C3CCNCC3)cs2)c1
5. COc1ccc(-n2cc(C(=O)Nc3cc(Cl)cc(NS(C)(=O)=O)c3)cc2C)nc1

RESULT:
0.0191
0.282
0.0473
0.0923
0.0089

---

Task for the reader: assign each of the following molecules its reported DHX9 Biochemical Max Inhibition.
TARGET_ENTITY: Human recombinant DHX9 protein (Homo sapiens (Human))
PROTOCOL_NOTES: DHX9 ATPase assay (ADP-Glo)
Type: biochemical

>  <MOLECULE>
Cc1cnc(-c2cc(C(=O)Nc3cc(Cl)cc(NS(C)(=O)=O)c3)cn2C)c(F)c1

>  <DHX9 Biochemical Max Inhibition>
70.5

$$$$
>  <MOLECULE>
Cn1cc(C(=O)Nc2cc(Cl)cc(NS(C)(=O)=O)c2)cc1-c1ccc(N2CCC(F)(F)C2)cn1

>  <DHX9 Biochemical Max Inhibition>
65.3

$$$$
>  <MOLECULE>
CCS(=O)(=O)Nc1cc(Cl)cc(NC(=O)c2cc(-c3ncc(F)cc3C)cs2)c1

>  <DHX9 Biochemical Max Inhibition>
73.6%

$$$$
>  <MOLECULE>
Cc1sc(C(=O)Nc2cc(F)cc(NS(C)(=O)=O)c2)cc1-c1ncc(N2CC(C(F)(F)F)C2)cc1F

>  <DHX9 Biochemical Max Inhibition>
73.3

$$$$
>  <MOLECULE>
Cn1cc(C(=O)Nc2cc(Cl)cc(NS(C)(=O)=O)c2)cc1-c1ccc(N2CC(F)C2)cn1

>  <DHX9 Biochemical Max Inhibition>
76

$$$$
>  <MOLECULE>
COC(=O)[C@@H]1CCCN1c1csc(C(=O)Nc2cc(Cl)cc(NS(C)(=O)=O)c2)c1

>  <DHX9 Biochemical Max Inhibition>
69.7%

$$$$

Field: DHX9 Biochemical Max Inhibition. Fill in for each record below.
1. Cc1cccnc1-c1csc(C(=O)Nc2cc(Br)cc(NS(C)(=N)=O)c2)c1 (centres unmarked)
2. CCS(=O)(=O)Nc1cc(Cl)cc(NC(=O)c2cc(-c3ncc(F)cn3)cs2)c1

RESULT:
1: 67.7%; 2: 54.4%
